Reference for the values: PubChem BioAssay (NCI)

# System: COLO 205 colon
# assay text: NCI-60 one-dose screen, 48 h
# particulars: 10 µM unless noted
Compounds without any hit were thinned out: in the full panel of roughly 83,000, 20% have a hit. Calls of active or inactive are those of the source. How the source made its calls: active means growth percent below 10; inactive means the rest.
Respond using exactly one of the listed classes: active, inactive

Here's what some known entries look like.
>>> print(df.to_string())
                                   molecule  experimental_system  group_label
0  CCCCCCCCCN(CCCCCCCCC)C(C)C(=O)c1ccc2cc(Br)c3ccccc3c2c1 (centres undefined)       COLO 205 colon     inactive
1  COc1ccc(-c2ccc(NNC(=O)c3ccc(F)cc3)nn2)cc1OC       COLO 205 colon     inactive

Recorded test call requested for C=C(C)[C@@H]1CC[C@]2(C(N)=O)CC[C@]3(C)[C@H](CC[C@@H]4[C@@]5(C)C/C(=C/c6cccnc6)[C@H](O)C(C)(C)[C@@H]5CC[C@]43C)[C@@H]12
active

Recorded test call requested for CCOC(=O)COc1ccc2c(c1)O/C(=C\c1ccc(O)cc1)C2=O
inactive
